B1: TPR 5TU (parent)
chain: GGAUCUUCUCGAUCUAACAAAAAAGACAAAUCUGCCACAAAGCUUGAGAGCAUCUUCGGAUGCAGAGGCGGCAGCCUUCGGUGGCGCGAUAGCGCCAACGUUCUCAACUAUGACACGCAAAACGCGUGCUCCGUUGAAUGGAGUUUAUCAUG

- Variants of: B1
- assay.text: polymerase ribozyme fitness, log enrichment relative to wild type (log ratio); higher = more active; in vitro selection for triplet polymerase activity
Fewer inactive variants are shown than the library holds.
Give measured polymerase ribozyme fitness (log ratio) for each item. Keep answers brief.

Need polymerase ribozyme fitness (log ratio), item C35U A47C G80U C87U
-3.9

# input variant: C14A A23C U56A C75G U77A C93U C95G U102C ; wanted: its polymerase ribozyme fitness (log ratio)
≤ -4.2

Look up polymerase ribozyme fitness (log ratio) for this variant: U6A A12C G58U A91C A98U C103G C131U
≤ -4.2

polymerase ribozyme fitness (log ratio) lookup needed for G84U C129U , thanks.
-1.42
